Can you tell me glycan array binding signal (z-score) for the items I'm about to list?
- assay_system: Neu5Ac(a2-3)Gal(b1-3)GlcNAc(b1-3)Gal(b1-3)GlcNAc
- assay_notes: glycan array binding signal (z-score within array); higher = stronger binding
- assay_context: glycan notation: IUPAC condensed, linker removed
The sample as a whole holds a higher share of the strongest signals than the screen did.
Respond with the number and no other words.

Hello, please tell me recorded glycan array binding signal (z-score) for this one: MCL (Mus musculus), Q9Z2H6 (protein) MWLEESQMKSKGTRHPQLIPCVFAVVSISFLSACFISTCLVTHHYFLRWTRGSVVKLSDYHTRVTCIREEPQPGATGGTWTCCPVSWRAFQSNCYFPLNDNQTWHESERNCSGMSSHLVTINTEAEQNFVTQLLDKRFSYFLGLADENVEGQWQWVDKTPFNPHTVFWEKGESNDFMEEDCVVLVHVHEKWVWNDFPCHFEVRRICKLPGITFNWKPSK
0.595

Indicate the recorded glycan array binding signal (z-score) value for this binder: LFA (Limax flavus) (protein) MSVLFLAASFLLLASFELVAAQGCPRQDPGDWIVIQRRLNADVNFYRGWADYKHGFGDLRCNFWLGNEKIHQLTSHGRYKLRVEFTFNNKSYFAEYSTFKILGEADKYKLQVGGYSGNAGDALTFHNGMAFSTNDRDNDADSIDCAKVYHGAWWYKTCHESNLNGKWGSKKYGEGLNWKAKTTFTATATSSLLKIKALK
-0.139

Fill in glycan array binding signal (z-score) for record MRCL (Homo sapiens), NP_872425.1 (protein) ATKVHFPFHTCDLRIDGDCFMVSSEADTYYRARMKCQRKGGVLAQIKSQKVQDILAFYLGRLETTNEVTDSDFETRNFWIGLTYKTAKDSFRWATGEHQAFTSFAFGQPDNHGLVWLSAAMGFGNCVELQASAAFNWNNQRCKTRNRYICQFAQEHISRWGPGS
-0.295
